Test system: OVCAR-3 ovarian
Assay: NCI tumour cell line growth inhibition, 48 h
Metric Name: TGI

- Compound: "Nc1ncnc2c1ncn2[C@@H]1C[C@@H]1CO"
  Metric Name: "TGI"
  Data Value: "> 100 µM"
- Compound: "CC(O)C1(CNc2cc(Cl)nc(N)n2)CCC1 (stereo not given)"
  Metric Name: "TGI"
  Data Value: "> 100 µM"
- Compound: "COc1ccc(/C=C2/N=C(c3ccccc3)N(c3c(C)n(C)n(-c4ccccc4)c3=O)C2=O)cc1OC"
  Metric Name: "TGI"
  Data Value: "> 100 µM"
- Compound: "COC(=O)C1=C(O)C(C(=O)OC)[C@]2(O)[C@H](C(=O)OC)[C@H]1C[C@@H](c1ccc(C(F)(F)F)cc1)[C@H]2C(=O)OC (stereo not given in full)"
  Metric Name: "TGI"
  Data Value: "54.1 µM"
- Compound: "Cc1cc(Cl)ccc1NC(=O)C(=O)Cc1nc2ccccc2o1"
  Metric Name: "TGI"
  Data Value: "> 100 µM"

input: Record request: TGI value, item OCC1OC(c2nc(C3=NCCCN3)cs2)C(O)C1O (stereo not given)
output: > 10 µM

input: Further, for [N-]=[N+]=N[C@H]1C[C@@H](CO)O[C@H]1n1cnc2c(N)ncnc21 ?
output: > 100 µM
